Species: Rattus norvegicus
Assay: Open TG-GATES - Regimen: Single
Type: toxicity, organism-based, Sprague-Dawley
Set-up: regimen Single, gender Male, age 6 weeks
Conditions: in vivo, po, 100 mg/kg, 9 h, tissue Plasma, route gavage, dose level Low
Consider the following compounds; for each one, report its gamma-GTP.
# number only, unit IU/L dropped from output

Value lookup for gamma-GTP; key = `NC(N)=Nc1nc(CSCCC(N)=NS(N)(=O)=O)cs1`
0.8

Value lookup for gamma-GTP; key = COc1ccc2[nH]c([S+]([O-])Cc3ncc(C)c(OC)c3C)nc2c1 (centres undefined)
1

Value lookup for gamma-GTP; key = CCOC(=O)CCC(=O)O[C@H]1[C@H](O[C@@H]2[C@@H](C)[C@H](O[C@H]3C[C@@](C)(OC)[C@@H](O)[C@H](C)O3)[C@@H](C)C(=O)O[C@H](CC)[C@@](C)(O)[C@H](O)[C@@H](C)C(=O)[C@H](C)C[C@@]2(C)O)O[C@H](C)C[C@@H]1N(C)C [ERYTHROMYCIN ETHYLSUCCINATE]
1.4

Value lookup for gamma-GTP; key = `COC1=CC(=O)C[C@@H](C)[C@]12Oc1c(Cl)c(OC)cc(OC)c1C2=O`
1.2

* * *

Species: Rattus norvegicus
Experiment: Open TG-GATES - Regimen: Daily Repeat
Format: toxicity, organism-based, Sprague-Dawley
Parameters: regimen Daily Repeat, gender Male, age 6 weeks
Details: in vivo, po, 0 mg/kg, […], tissue Plasma, route gavage, dose level Control, time 14 day
Consider the following compounds; for each one, report its IP.
# number only, unit mg/dL dropped from output

Value lookup for IP; key = `CC1=C(/C=C/C(C)=C/C=C/C(C)=C/CO)C(C)(C)CCC1`
6.1

Value lookup for IP; key = `COC1=CC(=O)C[C@@H](C)[C@]12Oc1c(Cl)c(OC)cc(OC)c1C2=O`
7.3

Value lookup for IP; key = CCOC(=O)CCC(=O)O[C@H]1[C@H](O[C@@H]2[C@@H](C)[C@H](O[C@H]3C[C@@](C)(OC)[C@@H](O)[C@H](C)O3)[C@@H](C)C(=O)O[C@H](CC)[C@@](C)(O)[C@H](O)[C@@H](C)C(=O)[C@H](C)C[C@@]2(C)O)O[C@H](C)C[C@@H]1N(C)C [ERYTHROMYCIN ETHYLSUCCINATE]
7.1

Value lookup for IP; key = CC(C)OC(=O)C(C)(C)Oc1ccc(C(=O)c2ccc(Cl)cc2)cc1 [FENOFIBRATE]
7.5

Value lookup for IP; key = `NNC(=O)c1ccncc1`
7.9

Value lookup for IP; key = CCOc1ccc(NC(=O)CC(C)O)cc1 (configuration not stated)
7.4

Value lookup for IP; key = COc1ccc2[nH]c([S+]([O-])Cc3ncc(C)c(OC)c3C)nc2c1 (configuration not stated)
6.5

Value lookup for IP; key = `CN(C)CCN(Cc1cccs1)c1ccccn1`
6.7

Value lookup for IP; key = `CN(C)CCCN1c2ccccc2CCc2ccccc21`
6.8

Value lookup for IP; key = `O=C(CCCN1CCC(O)(c2ccc(Cl)cc2)CC1)c1ccc(F)cc1`
7.4

Value lookup for IP; key = `NC(N)=Nc1nc(CSCCC(N)=NS(N)(=O)=O)cs1`
7.2

Value lookup for IP; key = CCCNC(=O)NS(=O)(=O)c1ccc(Cl)cc1 [CHLORPROPAMIDE]
7.3

* * *

Species on record: Rattus norvegicus
Experiment: Open TG-GATES - Regimen: Single
Type: toxicity, organism-based, Sprague-Dawley
Design: regimen Single, gender Male, age 6 weeks
Conditions: in vivo, po, 300 mg/kg, 6 h, tissue Plasma, route gavage, dose level Middle
value kind: TG (mg/dL)
# number only, unit mg/dL dropped from output

Value lookup for TG; key = CCOC(=O)CCC(=O)O[C@H]1[C@H](O[C@@H]2[C@@H](C)[C@H](O[C@H]3C[C@@](C)(OC)[C@@H](O)[C@H](C)O3)[C@@H](C)C(=O)O[C@H](CC)[C@@](C)(O)[C@H](O)[C@@H](C)C(=O)[C@H](C)C[C@@]2(C)O)O[C@H](C)C[C@@H]1N(C)C [ERYTHROMYCIN ETHYLSUCCINATE]
50.6

Value lookup for TG; key = COc1ccc2[nH]c([S+]([O-])Cc3ncc(C)c(OC)c3C)nc2c1 (centres undefined)
74.4

Value lookup for TG; key = `COC1=CC(=O)C[C@@H](C)[C@]12Oc1c(Cl)c(OC)cc(OC)c1C2=O`
50.4

Value lookup for TG; key = `NC(N)=Nc1nc(CSCCC(N)=NS(N)(=O)=O)cs1`
46.2

* * *

Species on record: Rattus norvegicus
Assay: Open TG-GATES - Regimen: Single
Format: toxicity, organism-based, Sprague-Dawley
Design: regimen Single, gender Male, age 6 weeks
Settings: in vivo, po, 0 mg/kg, 9 h, tissue Plasma, route gavage, dose level Control
Consider the following compounds; for each one, report its GLC.
# number only, unit mg/dL dropped from output

Value lookup for GLC; key = `NC(N)=Nc1nc(CSCCC(N)=NS(N)(=O)=O)cs1`
205.2

Value lookup for GLC; key = CCCNC(=O)NS(=O)(=O)c1ccc(Cl)cc1 [CHLORPROPAMIDE]
165.4

Value lookup for GLC; key = `O=C(CCCN1CCC(O)(c2ccc(Cl)cc2)CC1)c1ccc(F)cc1`
188.4

Value lookup for GLC; key = COc1ccc2[nH]c([S+]([O-])Cc3ncc(C)c(OC)c3C)nc2c1 (configuration not stated)
188.4

Value lookup for GLC; key = `NNC(=O)c1ccncc1`
200.6

Value lookup for GLC; key = `CN(C)CCCN1c2ccccc2CCc2ccccc21`
178

Value lookup for GLC; key = `CN(C)CCN(Cc1cccs1)c1ccccn1`
177.8

* * *

Consider the following molecules; for each one, report its TERMINAL_BW.
Organism: Rattus norvegicus
Experiment: Open TG-GATES - Regimen: Single
Assay type: toxicity, organism-based, Sprague-Dawley
Set-up: regimen Single, gender Male, age 6 weeks
Conditions: in vivo, po, 1000 mg/kg, 6 h, route gavage, dose level High
# number only, unit g dropped from output

Value lookup for TERMINAL_BW; key = `NC(N)=Nc1nc(CSCCC(N)=NS(N)(=O)=O)cs1`
212.4

Value lookup for TERMINAL_BW; key = COc1ccc2[nH]c([S+]([O-])Cc3ncc(C)c(OC)c3C)nc2c1 (centres undefined)
221

Value lookup for TERMINAL_BW; key = `COC1=CC(=O)C[C@@H](C)[C@]12Oc1c(Cl)c(OC)cc(OC)c1C2=O`
211

Value lookup for TERMINAL_BW; key = CCOC(=O)CCC(=O)O[C@H]1[C@H](O[C@@H]2[C@@H](C)[C@H](O[C@H]3C[C@@](C)(OC)[C@@H](O)[C@H](C)O3)[C@@H](C)C(=O)O[C@H](CC)[C@@](C)(O)[C@H](O)[C@@H](C)C(=O)[C@H](C)C[C@@]2(C)O)O[C@H](C)C[C@@H]1N(C)C [ERYTHROMYCIN ETHYLSUCCINATE]
219.9

* * *

Species: Rattus norvegicus
Assay: Open TG-GATES - Regimen: Daily Repeat
Format: toxicity, organism-based, Sprague-Dawley
Parameters: regimen Daily Repeat, gender Male, age 6 weeks
Conditions: in vivo, po, 1000 mg/kg, […], tissue Blood, route gavage, dose level High, time 28 day
Consider the following molecules; for each one, report its MCH.
# number only, unit pg dropped from output

Value lookup for MCH; key = `COC1=CC(=O)C[C@@H](C)[C@]12Oc1c(Cl)c(OC)cc(OC)c1C2=O`
20.4

Value lookup for MCH; key = COc1ccc2[nH]c([S+]([O-])Cc3ncc(C)c(OC)c3C)nc2c1 (stereo not given)
17.3

Value lookup for MCH; key = CCOc1ccc(NC(=O)CC(C)O)cc1 (stereo not given)
23.2

Value lookup for MCH; key = `NC(N)=Nc1nc(CSCCC(N)=NS(N)(=O)=O)cs1`
19.7

Value lookup for MCH; key = CCOC(=O)CCC(=O)O[C@H]1[C@H](O[C@@H]2[C@@H](C)[C@H](O[C@H]3C[C@@](C)(OC)[C@@H](O)[C@H](C)O3)[C@@H](C)C(=O)O[C@H](CC)[C@@](C)(O)[C@H](O)[C@@H](C)C(=O)[C@H](C)C[C@@]2(C)O)O[C@H](C)C[C@@H]1N(C)C [ERYTHROMYCIN ETHYLSUCCINATE]
18.9

* * *

Species on record: Rattus norvegicus
Assay: Open TG-GATES - Regimen: Daily Repeat
Type: toxicity, organism-based, Sprague-Dawley
Set-up: regimen Daily Repeat, gender Male, age 6 weeks
Conditions: in vivo, po, 100 mg/kg, […], tissue Blood, route gavage, dose level Low, time 28 day
Consider the following molecules; for each one, report its MCHC.

Value lookup for MCHC; key = CCOC(=O)CCC(=O)O[C@H]1[C@H](O[C@@H]2[C@@H](C)[C@H](O[C@H]3C[C@@](C)(OC)[C@@H](O)[C@H](C)O3)[C@@H](C)C(=O)O[C@H](CC)[C@@](C)(O)[C@H](O)[C@@H](C)C(=O)[C@H](C)C[C@@]2(C)O)O[C@H](C)C[C@@H]1N(C)C [ERYTHROMYCIN ETHYLSUCCINATE]
34.5%

Value lookup for MCHC; key = COc1ccc2[nH]c([S+]([O-])Cc3ncc(C)c(OC)c3C)nc2c1 (stereo not given)
34.3%

Value lookup for MCHC; key = CCOc1ccc(NC(=O)CC(C)O)cc1 (stereo not given)
34.9%

Value lookup for MCHC; key = `NC(N)=Nc1nc(CSCCC(N)=NS(N)(=O)=O)cs1`
35.5%

Value lookup for MCHC; key = `COC1=CC(=O)C[C@@H](C)[C@]12Oc1c(Cl)c(OC)cc(OC)c1C2=O`
34%
